- system_name: SARS-CoV-2 Spike protein (SARS-CoV-2 Wuhan-Hu-1, UniProt P0DTC2 14-1273)
- test: cell-based or functional assay
readout_label: neutralization IC90
Answer with the figure and its unit, nothing else.

Here are 3 binders together with their reported answers.
INSERT INTO measurements (binder, readout_value) VALUES
  ('S2D25 (antibody, V domains shown) VH: EVQLVESGGGLVQPGGSLRLSCAASGFPFNIYAMSWVRQAPGKGLEWVSGISGSGGSTYYADSVRGRFAISRDNSKNTLYLQMNSLRAEDTAEYYCAKDLWFREILHGMDVWGKGTTVTVSS VL: QSALTQPASVSGSPGQSITISCTGTSSDVGGYNYVSWYQHHPGRAPKLMIYEVSNRPSGVSNRFSGSKSGNTASLSISGLQAEDEADYYCSSYTSSSTYVFGAGTKVTVL', '0.146 µg/mL'),
  ('S2D22 (antibody, V domains shown) VH: EVHLVESGGGLVQPGGSLKLSCAASGFTFSGSAMHWVRQASGKGLEWVGRIRTKANTYATAYAASVKGRFTISRDDSKNTAYLQMNSLKTEDTAVYYCTRPAPYDFLSDYYTGEQLDYWGQGTLVTVSS VL: QSVLTQPPSVSGAPGQRVTISCTGSSSNIGAGYDVHWYQQLPGAAPKLLIYGNSNRPSGVPDRFSGSKSGTSASLAITGLQAEDEADYYCQSYDSSLSGPEVFGTGTKVTVL', '7.16 µg/mL'),
  ('S2D8 (antibody, V domains shown) VH: EVQLLESGGGLVQPGGSLRLSCAASGFTFTTYAMSWVRQAPGKGLEWVSGISGSGGNTYHADSVKGRFTISRDNSKSTLYLQMNSLRAEDTAVYYCAKDLWFREILHGMDVWGEGTTVTVSS VL: QSALTQPASVSGSPGQSITISCTGTSSDIGGYNYVSWYQHHPGKAPKIMIYEVTNRPSGVSNRFSGSKSGNTASLTISGLQAEDEADYYCSSYTSSNTYVFGTGTKVTVL', '0.087 µg/mL');

Okay, next one:
Record request: neutralization IC90 value, item S2D32 (antibody, V domains shown) VH: EVQLVESGGGLVQPGRSLRLSCTSSGFTFGDYPMSWFRQAPGKGLEWVGFIRSKAYGGTTQYAASVKGRFTISRDDSKNIAYLQMNSLKTEDTAVYYCTREMWDCSGGRCYSPFFDYWGQGTLVTVSS VL: EIVMTQSPATLSVSPGERATLSCRASQTVSSNLAWYQQKPGQAPRLLIYGASTRATGIPARFSGSGSGTEFTLTISSLQSEDFAVYYCQQYNNWRTFGQGTKLEIK 0.129 µg/mL
